Target: Protein kinase C delta type (Homo sapiens)
Sequence (Q05655 whole entry): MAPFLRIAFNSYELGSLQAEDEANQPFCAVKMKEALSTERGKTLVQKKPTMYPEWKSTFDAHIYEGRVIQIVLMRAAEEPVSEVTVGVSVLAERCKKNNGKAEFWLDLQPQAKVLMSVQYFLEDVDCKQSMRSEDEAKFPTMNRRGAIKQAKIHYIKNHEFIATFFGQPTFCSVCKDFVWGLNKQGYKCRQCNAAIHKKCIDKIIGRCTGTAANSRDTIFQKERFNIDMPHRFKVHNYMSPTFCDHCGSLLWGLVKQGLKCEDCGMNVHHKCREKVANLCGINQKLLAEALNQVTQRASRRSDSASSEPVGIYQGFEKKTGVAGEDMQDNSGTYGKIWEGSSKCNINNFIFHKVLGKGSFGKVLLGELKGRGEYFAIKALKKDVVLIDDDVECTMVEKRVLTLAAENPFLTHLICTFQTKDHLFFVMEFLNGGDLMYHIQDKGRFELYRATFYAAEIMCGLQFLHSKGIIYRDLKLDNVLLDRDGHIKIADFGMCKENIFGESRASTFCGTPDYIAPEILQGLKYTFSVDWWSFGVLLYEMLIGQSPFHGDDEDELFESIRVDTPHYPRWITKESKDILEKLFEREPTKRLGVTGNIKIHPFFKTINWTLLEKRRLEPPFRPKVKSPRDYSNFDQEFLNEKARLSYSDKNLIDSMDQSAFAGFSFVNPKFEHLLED
Test: Inhibition of [3H]PDBu binding to PKC delta C1B peptide
measured.metric: Ki (nM)
All answers are understood in nM, so give the number only.

molecule	system	unit.of.measurement	measured.value
CC1(C)CC[C@@H]2CC(=O)O[C@@H](CO)CC(=O)O[C@@H]3C[C@@H](CCCCc4cccc(O)c4)O[C@@]1(C3)O2	Protein kinase C delta type (Homo sapiens)	nM	7.4
CC1(C)CC[C@@H]2CC(=O)O[C@@H](CO)CC(=O)O[C@@H]3C[C@@H](CCCCc4ccccc4)O[C@@]1(C3)O2	Protein kinase C delta type (Homo sapiens)	nM	9.8
O=C1C[C@H](CO)OC(=O)C[C@H]2CCC[C@]3(C[C@@H](C[C@@H](CCCCc4ccccc4)O3)O1)O2	Protein kinase C delta type (Homo sapiens)	nM	170

In the following, a different molecule is considered.
Output Ki of CO[C@@H](CC[C@H](C)[C@H]1O[C@@]23C[C@H](OC(=O)C[C@H]([C@@H](C)O)OC(=O)C[C@](O)(O2)[C@H](C)CC3(C)C)[C@@H]1C)c1cc(O)ccc1Br [APLYSIATOXIN]
0.41

###

Measurement record for Protein kinase C alpha type (Homo sapiens, UniProt P17252); quantity recorded: Ki.
# value in nM; strip the unit string

molecule	Ki, nM
O=C1C[C@H](CO)OC(=O)C[C@H]2CCC[C@]3(C[C@@H](C[C@@H](CCCCc4ccccc4)O3)O1)O2	2400
CO[C@@H](CC[C@H](C)[C@H]1O[C@@]23C[C@H](OC(=O)C[C@H]([C@@H](C)O)OC(=O)C[C@](O)(O2)[C@H](C)CC3(C)C)[C@@H]1C)c1cc(O)ccc1Br [APLYSIATOXIN]	0.4
CC1(C)CC[C@@H]2CC(=O)O[C@@H](CO)CC(=O)O[C@@H]3C[C@@H](CCCCc4ccccc4)O[C@@]1(C3)O2	120

Tell me measured Ki for CC1(C)CC[C@@H]2CC(=O)O[C@@H](CO)CC(=O)O[C@@H]3C[C@@H](CCCCc4cccc(O)c4)O[C@@]1(C3)O2 please.
63

###

Measured pKi on Protein kinase C beta type (Homo sapiens, UniProt P05771) follows.
Sequence (P05771 whole entry): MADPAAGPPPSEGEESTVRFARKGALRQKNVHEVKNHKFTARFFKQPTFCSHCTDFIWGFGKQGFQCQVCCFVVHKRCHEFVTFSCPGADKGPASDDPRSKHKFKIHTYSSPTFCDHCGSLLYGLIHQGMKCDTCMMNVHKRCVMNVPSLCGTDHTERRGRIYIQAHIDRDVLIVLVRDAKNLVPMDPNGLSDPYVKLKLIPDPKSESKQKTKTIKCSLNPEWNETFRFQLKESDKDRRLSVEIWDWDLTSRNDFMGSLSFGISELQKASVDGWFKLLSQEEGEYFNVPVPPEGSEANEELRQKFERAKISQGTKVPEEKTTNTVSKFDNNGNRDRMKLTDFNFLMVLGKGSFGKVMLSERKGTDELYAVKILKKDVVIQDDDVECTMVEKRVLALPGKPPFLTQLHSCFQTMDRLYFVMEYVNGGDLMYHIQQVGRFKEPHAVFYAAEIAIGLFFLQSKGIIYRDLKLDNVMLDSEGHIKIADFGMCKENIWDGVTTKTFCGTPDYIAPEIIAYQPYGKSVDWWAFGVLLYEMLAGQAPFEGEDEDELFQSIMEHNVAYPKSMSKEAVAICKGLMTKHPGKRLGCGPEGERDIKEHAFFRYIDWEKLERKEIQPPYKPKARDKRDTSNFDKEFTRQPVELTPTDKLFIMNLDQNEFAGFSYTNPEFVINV
Reminder that pKi is minus the log10 of a molar concentration.

Use the examples below as a reference point.
In [3]: df
Out[3]:
                               given_smiles  measured_value
0  CC1(C)CC[C@@H]2CC(=O)O[C@@H](CO)CC(=O)O[C@@H]3C[C@@H](CCCCc4ccccc4)O[C@@]1(C3)O2            6.85
1  CC1(C)CC[C@@H]2CC(=O)O[C@@H](CO)CC(=O)O[C@@H]3C[C@@H](CCCCc4cccc(O)c4)O[C@@]1(C3)O2            7.05
2  O=C1C[C@H](CO)OC(=O)C[C@H]2CCC[C@]3(C[C@@H](C[C@@H](CCCCc4ccccc4)O3)O1)O2            5.46

Tell me pKi reported for CO[C@@H](CC[C@H](C)[C@H]1O[C@@]23C[C@H](OC(=O)C[C@H]([C@@H](C)O)OC(=O)C[C@](O)(O2)[C@H](C)CC3(C)C)[C@@H]1C)c1cc(O)ccc1Br
9.35

All figures here come from ChEMBL document CHEMBL1255183.
